Reported TGI by item:
Tested on: OVCAR-3 ovarian
Assay: NCI tumour cell line growth inhibition, 48 h

Compound	Comparative sign	TGI / µM
COc1c(Br)cc(Br)c(OC)c1-c1ccc[nH]1	>	100
Cn1cc(C2=C(Sc3ccccc3)C(=O)NC2=O)c2ccccc21	>	22.5
COc1ccc(-c2[nH]c(=O)n(C3OC(CO)C(O)C(O)C3O)c(=O)c2C#N)cc1 (centres undefined)	>	100
CN(C)c1ccc2nc3ccc(=N)cc-3sc2c1	=	12
CCOC(=O)C(=O)/C=C(\C)Nc1c(NC2OCC(OC(C)=O)C(OC(C)=O)C2OC(C)=O)nc(SC)[nH]c1=O (centres undefined)	>	100
Cc1cc(C)c(CNC(=O)c2cc(-c3ccc(CN4CCOCC4)cc3)cc3c2cnn3C2CCCC2)c(=O)[nH]1	=	30.9
COc1nc(NC2OC(COC(C)=O)C(OC(C)=O)C(OC(C)=O)C2OC(C)=O)c(N=CC=Nc2c(NC3OC(COC(C)=O)C(OC(C)=O)C(OC(C)=O)C3OC(C)=O)nc(OC)n(C)c2=O)c(=O)n1C (centres undefined)	>	100
CN(C)CCNC(=O)c1ccc(Cl)c2c(Nc3ccc(S(=O)(=O)N=C(N)N)cc3)c3ccccc3nc12	=	30.6
Nc1nc(-c2cccc3ccccc23)cc2ccccc12	=	10.4
